Target: T1, His-human LIGHT (human)
T1 construct: also called His-huLIGHT; free LIGHT
T1 chain: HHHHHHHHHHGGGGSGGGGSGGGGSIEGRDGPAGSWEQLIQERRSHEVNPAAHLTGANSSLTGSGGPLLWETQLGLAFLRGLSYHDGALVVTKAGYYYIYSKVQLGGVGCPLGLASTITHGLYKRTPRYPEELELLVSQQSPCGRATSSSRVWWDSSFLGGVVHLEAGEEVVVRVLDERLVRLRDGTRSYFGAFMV
Assay: ELISA, His-huLIGHT coated
Reported values of EC50 for individual entries
The reply should contain only the number, in µg/mL.

# example entries with known answers
hum_LT-m37-12 (antibody, human IgG4, V domains shown, humanized from LT-m37) VH: QVQLVQSGAEVKKPGASVKVSCKASGYSFTGYFINWVRQAPGQGLEWIGRIYPYNVNTFYNQNFKGRVTMTADKSTSTAYMELSSLRSEDTAVYYCGRGTHYYGSSGAMDYWGQGTLVTVSS VL: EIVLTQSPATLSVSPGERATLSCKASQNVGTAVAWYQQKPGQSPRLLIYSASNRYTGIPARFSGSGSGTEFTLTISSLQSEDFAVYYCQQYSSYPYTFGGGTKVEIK; 0.0878
hum_LT-m37-3 (antibody, human IgG4, V domains shown, humanized from LT-m37) VH: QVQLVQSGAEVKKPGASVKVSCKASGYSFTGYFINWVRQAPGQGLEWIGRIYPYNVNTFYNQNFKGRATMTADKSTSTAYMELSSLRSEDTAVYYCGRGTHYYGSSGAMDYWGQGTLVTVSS VL: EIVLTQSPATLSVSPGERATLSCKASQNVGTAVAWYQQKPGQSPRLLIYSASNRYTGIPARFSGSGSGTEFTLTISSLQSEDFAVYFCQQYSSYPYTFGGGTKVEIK; 0.0875

Read the next record carefully.
## Task State the recorded EC50 for this entry: hum_LT-m37-5 (antibody, human IgG4, V domains shown, humanized from LT-m37) VH: QVQLVQSGAEVKKPGASVKVSCKASGYSFTGYFINWVRQAPGQSLEWIGRIYPYNVNTFYNQNFKGRATLTADKSTSTAYMELSSLRSEDTAVYYCGRGTHYYGSSGAMDYWGQGTLVTVSS VL: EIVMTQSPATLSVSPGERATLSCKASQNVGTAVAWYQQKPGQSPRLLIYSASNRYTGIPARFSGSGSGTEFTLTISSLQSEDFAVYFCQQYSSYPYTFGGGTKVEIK
## Result 0.0837
